Reference for the values: PubChem BioAssay AID248

Tested on: L1210 leukemia ip in BDF1 mice, survival T/C
assay_summary: NCI In Vivo Anticancer Drug Screen. Data for tumor model L1210 Leukemia (intraperitoneal) in B6D2F1 (BDF1) mice
measurement_parameters: endpoint: mean survival time; dose: 40.0 mg/kg/injection; schedule: Q01DX001 (ip); vehicle: saline; higher = longer survival
Inconclusive results and toxic doses are left out.
property_label: T/C

The recorded T/C for entry O=C(CBr)c1ccc(F)cc1 equals 92 % of control

The recorded T/C for entry CCCCCC(C)N (centres undefined) equals 103 % of control

The recorded T/C for entry CCCCCCCCCCCCCCCCCC(=O)NCC#CCN1CCCC1 equals 105 % of control

The recorded T/C for entry COC1C(O)C(C)OC(O[C@@H]2C[C@H]3CC[C@@H]4[C@H](CC[C@]5(C)[C@@H](C6=CC(=O)OC6)CC[C@]45O)[C@@]3(C)[C@H](O)C2)C1O (some centres undefined) equals 111 % of control
